system: induction of effector macrophage by contact of human PBMC with mitomycin-treated human PBMC (allo-MLC); test: SPFC production by allo-MLC stimulation (Test Example 2); assay type: cell-based; conditions: summary of Table 1
experimental_readout: functional group (selective suppression of SPFC production by allo-MLC or LPS stimulation)

> print(dat)
                                   compound  value.measured
1  O=C1OC(F)(C(=O)OCc2ccccc2)c2ccccc21 (stereo not drawn) [(7-2)]        group II
2  N#CC1(C(=O)OCc2ccccc2)CCC(=O)O1 (stereo not drawn) [(6-3)]        group II
3  O=C1OC(Cl)(C(=O)OCc2ccccc2)c2ccccc21 (stereo not drawn) [(7-3)]         group I
4  O=C1OC(Oc2ccc(F)cc2)(C(=O)OCc2ccccc2)c2ccccc21 (stereo not drawn) [(7-5)]         group I
5  O=C1CCC(Cc2ccc(F)cc2)(C(=O)O)O1 (stereo not drawn) [(5-2)]        group II
6  O=C1CCC(Cc2ccccc2)(C(=O)OCc2ccccc2)O1 (stereo not drawn) [(5-4)]         group I
7         O=C(O)C(=O)c1ccccc1C(=O)O [(7-7)]        group II
8  CC(OC(=O)[C@@]1(Oc2ccc(F)cc2)CCC(=O)O1)c1ccc2ccccc2c1 (mixture of isomers) [(3-2)]        group II
9  O=C1CCC(F)(C(=O)OCc2ccccc2)O1 (stereo not drawn) [(6-2)]        group II
